- System: MOOVA (Monochoria)
- ASSAY: Postemergence weed control under flooded paddy conditions
- Type: in vivo, Monochoria vaginalis
- SETUP CONDITIONS: rate 0.0625 kg/ha, postemergence weeds, 3-4 weeks after treatment
Label TRUE when Herbicidal rating MOOVA is strictly below 4; otherwise label FALSE.

- COMPOUND: "COC(=O)CCCN1C(=O)CSC1=Nc1cc(-n2c(=O)cc(C(F)(F)F)n(C)c2=O)c(F)cc1Cl"
  CLASS: "TRUE"
- COMPOUND: "C=CCN1C(=O)CSC1=Nc1cc(N2C(=O)C3=C(CCCC3)C2=O)c(F)cc1Cl"
  CLASS: "FALSE"
- COMPOUND: "Cn1c(C(F)(F)F)cc(=O)n(-c2cc(N=C3NC(=O)CS3)c(Cl)cc2F)c1=O"
  CLASS: "FALSE"
- COMPOUND: "CCOC(=O)CN1C(=O)C(CC(=O)O)S/C1=N/c1cc(-n2c(=O)cc(C(F)(F)F)n(C)c2=O)c(F)cc1Cl (stereo not drawn)"
  CLASS: "FALSE"
- COMPOUND: "CCOC(=O)CN1C(=O)C(CCO)S/C1=N/c1cc(-n2c(=O)cc(C(F)(F)F)n(C)c2=O)c(F)cc1Cl (stereo not drawn)"
  CLASS: "FALSE"
- COMPOUND: "CCOC(=O)CN1C(=O)C(Cc2ccccc2)SC1=Nc1cc(-n2c(=O)cc(C(F)(F)F)n(C)c2=O)c(F)cc1Cl (stereo not drawn)"
  CLASS: "FALSE"
- COMPOUND: "CCOC(=O)CN1C(=O)C(CC(=O)OC)S/C1=N/c1cc(-n2c(=O)cc(C(F)(F)F)n(C)c2=O)c(F)cc1Cl (stereo not drawn)"
  CLASS: "TRUE"
- COMPOUND: "C[C@@H](C(=O)O)N1C(=O)CS/C1=N/c1cc(-n2c(=O)cc(C(F)(F)F)n(C)c2=O)c(F)cc1Cl"
  CLASS: "TRUE"

---

- Test system: MOOVA (Monochoria)
- ASSAY: Preemergence weed control under flooded paddy conditions
- Assay type: in vivo, Monochoria vaginalis
- SETUP CONDITIONS: 0.2500 kg/ha, rated 3-4 weeks after treatment
Listed next: entries and their corresponding herbicidal effect rating, MOOVA.

- COMPOUND: "Cn1c(C(F)(F)F)cc(=O)n(-c2cc(N=C3SCC(=O)N3Cc3cccc(Cl)c3)c(Cl)cc2F)c1=O"
  herbicidal effect rating, MOOVA: 9.0
- COMPOUND: "Cn1c(C(F)(F)F)cc(=O)n(-c2cc(N=C3SCC(=O)N3Cc3ccc(Cl)c(Cl)c3)c(Cl)cc2F)c1=O"
  herbicidal effect rating, MOOVA: 9.0
- COMPOUND: "CCOC(=O)CN1C(=O)C(C(=O)OC(C)(C)C)SC1=Nc1cc(-n2c(=O)cc(C(F)(F)F)n(C)c2=O)c(F)cc1Cl (centres unmarked)"
  herbicidal effect rating, MOOVA: 9.0
- COMPOUND: "Cc1cc(C)cc(CN2C(=O)CSC2=Nc2cc(-n3c(=O)cc(C(F)(F)F)n(C)c3=O)c(F)cc2Cl)c1"
  herbicidal effect rating, MOOVA: 9.0
- COMPOUND: "C=C1SC(=Nc2cc(-n3c(=O)cc(C(F)(F)F)n(C)c3=O)c(F)cc2Cl)N(CC(=O)OCC)C1=O"
  herbicidal effect rating, MOOVA: 9.0

---

- Tested on: CHEAL (Lambsquarters, Common)
- ASSAY: Postemergence herbicidal evaluation
- Type: in vivo, Chenopodium album
- SETUP CONDITIONS: postemergence, rate 0.0158 kg/ha
ASSAY ENDPOINT: CHEAL herbicidal rating

- COMPOUND: "CCOC(=O)[C@H](Cc1ccccc1)N1C(=O)CSC1=Nc1cc(-n2c(=O)cc(C(F)(F)F)n(C)c2=O)c(F)cc1Cl"
  OBSERVED VALUE: 9.0
- COMPOUND: "CCOC(=O)CN1C(=O)CO/C1=N/c1cc(-n2c(=O)cc(C(F)(F)F)n(C)c2=O)c(F)cc1Cl"
  OBSERVED VALUE: 4.0
- COMPOUND: "CCOC(=O)CN1C(=O)C(CC(=O)Nc2ccccc2)SC1=Nc1cc(-n2c(=O)cc(C(F)(F)F)n(C)c2=O)c(F)cc1Cl (stereo not shown)"
  OBSERVED VALUE: 4.0
- COMPOUND: "C[C@H](C(=O)O)N1C(=O)CSC1=Nc1cc(-n2c(=O)cc(C(F)(F)F)n(C)c2=O)c(F)cc1Cl"
  OBSERVED VALUE: 4.0

---

Preemergence herbicidal rating CHEAL values for the compounds below.
- Test system: CHEAL (Lambsquarters, Common)
- ASSAY: Preemergence herbicidal evaluation
- Type: in vivo, Chenopodium album
- SETUP CONDITIONS: rate 0.0156 kg/ha; rated 4-5 weeks after treatment

- COMPOUND: "C[C@@H](C(=O)O)N1C(=O)CS/C1=N/c1cc(-n2c(=O)cc(C(F)(F)F)n(C)c2=O)c(F)cc1Cl"
  Preemergence herbicidal rating CHEAL: 3.0
- COMPOUND: "CC(C)C[C@@H](C(=O)O)N1C(=O)CSC1=Nc1cc(-n2c(=O)cc(C(F)(F)F)n(C)c2=O)c(F)cc1Cl"
  Preemergence herbicidal rating CHEAL: 3.0
- COMPOUND: "Cn1c(C(F)(F)F)cc(=O)n(-c2cc(N=C3SCC(=O)N3CC(=O)OC(C)(C)C)c(Cl)cc2F)c1=O"
  Preemergence herbicidal rating CHEAL: 9.0
- COMPOUND: "CCOC(=O)CN1C(=O)C(Cc2ccccc2OCC(=O)O)S/C1=N/c1cc(-n2c(=O)cc(C(F)(F)F)n(C)c2=O)c(F)cc1Cl (stereo not shown)"
  Preemergence herbicidal rating CHEAL: 6.0
- COMPOUND: "CC(C)OC(=O)CN1C(=O)CSC1=Nc1cc(-n2c(=O)cc(C(F)(F)F)n(C)c2=O)c(F)cc1Cl"
  Preemergence herbicidal rating CHEAL: 8.0
- COMPOUND: "CCOC(=O)[C@H](Cc1ccccc1)N1C(=O)CSC1=Nc1cc(-n2c(=O)cc(C(F)(F)F)n(C)c2=O)c(F)cc1Cl"
  Preemergence herbicidal rating CHEAL: 7.0
- COMPOUND: "CC(C)COC(=O)CN1C(=O)CSC1=Nc1cc(-n2c(=O)cc(C(F)(F)F)n(C)c2=O)c(F)cc1Cl"
  Preemergence herbicidal rating CHEAL: 9.0

---

- Tested on: ZEAMX (Corn, Field)
- ASSAY: Preemergence herbicidal evaluation
- Format: in vivo, Zea mays
- SETUP CONDITIONS: rate 0.1250 kg/ha; rated 4-5 weeks after treatment
Recorded Preemergence herbicidal rating ZEAMX for the following molecules

- MOLECULE: "CC(C)S(=O)(=O)NC(=O)CC1SC(=Nc2cc(-n3c(=O)cc(C(F)(F)F)n(C)c3=O)c(F)cc2Cl)N(C)C1=O (centres unmarked)"
  Preemergence herbicidal rating ZEAMX: 0.0
- MOLECULE: "CCOC(=O)CN1C(=O)C(CCO)S/C1=N/c1cc(-n2c(=O)cc(C(F)(F)F)n(C)c2=O)c(F)cc1Cl (centres unmarked)"
  Preemergence herbicidal rating ZEAMX: 3.0
- MOLECULE: "Cn1c(C(F)(F)F)cc(=O)n(-c2cc(N=C3SCC(=O)N3CC(=O)OCC3CCCCC3)c(Cl)cc2F)c1=O"
  Preemergence herbicidal rating ZEAMX: 5.0
- MOLECULE: "CCOC(=O)CN1C(=O)C(C(=O)OC)SC1=Nc1cc(-n2c(=O)cc(C(F)(F)F)n(C)c2=O)c(F)cc1Cl (centres unmarked)"
  Preemergence herbicidal rating ZEAMX: 0.0
- MOLECULE: "CCOC(=O)CN1C(=O)C(Cc2ccccc2OC)SC1=Nc1cc(-n2c(=O)cc(C(F)(F)F)n(C)c2=O)c(F)cc1Cl (centres unmarked)"
  Preemergence herbicidal rating ZEAMX: 0.0
- MOLECULE: "CCOC(=O)CN1C(=O)C(CC(=O)O)SC1=Nc1cc(-n2c(=O)cc(C(F)(F)F)n(C)c2=O)c(Cl)cc1Cl (centres unmarked)"
  Preemergence herbicidal rating ZEAMX: 0.0
- MOLECULE: "COC(=O)COC(=O)CN1C(=O)CSC1=Nc1cc(-n2c(=O)cc(C(F)(F)F)n(C)c2=O)c(F)cc1Cl"
  Preemergence herbicidal rating ZEAMX: 1.0
- MOLECULE: "C[C@@H](C(=O)O)N1C(=O)CS/C1=N/c1cc(-n2c(=O)cc(C(F)(F)F)n(C)c2=O)c(F)cc1Cl"
  Preemergence herbicidal rating ZEAMX: 2.0
- MOLECULE: "C[C@H](C(=O)O)N1C(=O)CSC1=Nc1cc(-n2c(=O)cc(C(F)(F)F)n(C)c2=O)c(F)cc1Cl"
  Preemergence herbicidal rating ZEAMX: 1.0
- MOLECULE: "CCOC(=O)CN1C(=O)C(Cc2ccccc2OCC(=O)O)S/C1=N/c1cc(-n2c(=O)cc(C(F)(F)F)n(C)c2=O)c(F)cc1Cl (centres unmarked)"
  Preemergence herbicidal rating ZEAMX: 0.0
- MOLECULE: "CN1C(=O)C(CC(=O)O)SC1=Nc1cc(-n2c(=O)cc(C(F)(F)F)n(C)c2=O)c(F)cc1Cl (centres unmarked)"
  Preemergence herbicidal rating ZEAMX: 6.0
